The reported measurements were obtained from PubChem BioAssay (NCI).

Form field: TGI (one value per entry).
tested on: M14 melanoma; experiment: NCI tumour cell line growth inhibition, 48 h

Item O=c1[nH]nc(Cc2ccc(Cl)cc2)n1/N=C/c1cccs1 : provide TGI > 100 µM

* * *

system: RXF 393 renal; assay: NCI tumour cell line growth inhibition, 48 h
MEASURED PARAMETER: TGI

Find the measured TGI of CC1(C)N=C(N)N=C(N)N1c1cccc(OCCOc2cccc([N+](=O)[O-])c2)c1 with RXF 393 renal as test system. > 100 µM

Find the measured TGI of c1ccc(NCCSc2nc3ccccc3s2)cc1 with RXF 393 renal as test system. > 100 µM

Find the measured TGI of N[C@H](Cc1ccc2oc3cc(=O)c4ccccc4c-3nc2c1)C(=O)O with RXF 393 renal as test system. > 100 µM

Find the measured TGI of N#CC(C#N)=C1CCCOc2c1ccc1ccccc21 with RXF 393 renal as test system. > 100 µM

Find the measured TGI of CCCO[C@@H]1[C@@H](OC(C)=O)[C@@H](OC(C)=O)C(C)(C)/C=C/[C@H](C)C(=O)[C@@]2(OC(C)=O)C[C@@](C)(OC(C)=O)[C@H](OC(C)=O)[C@@H]2[C@H]2OC(=O)CC[C@@]12OC(=O)c1ccccc1 with RXF 393 renal as test system. > 25 µM
